# TEST TARGET: Neuropeptide Y receptor type 1 (Homo sapiens)
# RUN DESCRIPTION: NPY-Y1 receptor antagonists, selectivity check, counter-screen for NPY-Y2 antagonist project, cell-based (AID 1256);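 note: cells challenged with NPY then isoproterenol with cAMP sensed through a CNG channel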
# REPORTED CONDITIONS: cell-based NPY-Y1 antagonism counterscreen; at 3.6 µM
The list shows a part of the results. Calls of active or inactive are those of the source. Cut-off read from the data, not from the text of the source: active = inhibition above about 20%; inactive = the rest.
Outcome (select one): 1 = active, 0 = inactive

[
  {
    "COMPOUND": "CC12CN(Cc3ccccc3)CC(C)(CN(Cc3ccccc3)C1)C2=NO",
    "LABEL": 0
  },
  {
    "COMPOUND": "O=C(CC(O)(C(F)(F)F)C(F)(F)F)Nc1ccc(Cl)c(Cl)c1",
    "LABEL": 1
  },
  {
    "COMPOUND": "COc1ccc(-c2nc3ccccc3n2CCC(C)C)cc1OC",
    "LABEL": 0
  },
  {
    "COMPOUND": "CN(C)Cc1ccc(F)cc1Sc1cc(Cl)ccc1Cl",
    "LABEL": 0
  },
  {
    "COMPOUND": "Cc1ccccc1OC(=O)Cn1c(C(F)(F)F)nc2ccccc21",
    "LABEL": 0
  }
]

Entry N#Cc1ccc(N2Cc3ccccc3/C2=N/C(=O)Nc2ccc(Cl)cc2)cc1 : call = ?
1

Entry O=C1CC(c2cccc(Cl)c2)CC(O)=C1C=Nc1ccccc1 (configuration not stated) : call = ?
0

Entry N#Cc1ccc(C(c2nnnn2CCc2ccccc2)N2CCCCCC2)cc1 (configuration not stated) : call = ?
0

From: PubChem BioAssay AID1256
